SUBJECT_OF_TEST: SNRK (human) (UniProt Q9NRH2)
Sequence (Q9NRH2 whole entry, looked up): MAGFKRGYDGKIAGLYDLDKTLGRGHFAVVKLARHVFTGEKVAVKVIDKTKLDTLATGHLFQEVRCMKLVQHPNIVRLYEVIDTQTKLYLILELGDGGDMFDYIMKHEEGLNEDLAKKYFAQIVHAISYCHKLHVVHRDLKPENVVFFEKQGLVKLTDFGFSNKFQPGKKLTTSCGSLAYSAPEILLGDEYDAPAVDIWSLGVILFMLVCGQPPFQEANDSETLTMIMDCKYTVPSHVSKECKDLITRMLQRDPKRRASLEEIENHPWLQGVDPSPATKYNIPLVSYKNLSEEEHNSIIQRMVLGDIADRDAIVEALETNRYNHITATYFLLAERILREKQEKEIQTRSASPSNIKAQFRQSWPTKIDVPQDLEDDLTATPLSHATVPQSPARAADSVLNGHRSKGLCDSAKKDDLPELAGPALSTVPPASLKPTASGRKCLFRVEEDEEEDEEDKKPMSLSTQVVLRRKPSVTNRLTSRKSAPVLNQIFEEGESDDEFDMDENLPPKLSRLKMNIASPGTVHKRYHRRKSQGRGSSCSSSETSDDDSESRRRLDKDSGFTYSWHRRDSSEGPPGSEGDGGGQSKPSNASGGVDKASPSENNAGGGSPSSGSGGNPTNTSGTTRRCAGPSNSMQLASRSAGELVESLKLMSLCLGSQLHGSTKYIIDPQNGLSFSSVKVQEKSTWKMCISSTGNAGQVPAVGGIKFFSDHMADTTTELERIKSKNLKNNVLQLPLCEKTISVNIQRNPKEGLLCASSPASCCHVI
ASSAY_PROCEDURE: KINOMEscan competition binding
CONDITIONS_USED: compound 10.0 µM
Threshold-based label: kinase still bound, per cent of control under 90% gives Criterion met, kinase still bound, per cent of control not under 90% gives Criterion not met.

[[record]]
mol_smiles = "NC(=O)Nc1cc(-c2cccc(F)c2)sc1C(=O)N[C@@H]1CCCNC1"
assigned_class = "Criterion met"

[[record]]
mol_smiles = "COc1ccc(N(C(=O)Oc2c(C)cccc2C)c2ccnc(Nc3ccc(N4CCN(C)CC4)cc3)n2)c(OC)c1"
assigned_class = "Criterion not met"

[[record]]
mol_smiles = "COc1cc2ncnc(-n3nc(-c4ccccn4)nc3N)c2cc1OC"
assigned_class = "Criterion met"

[[record]]
mol_smiles = "O=C(Nc1cccc(Nc2ncc(Br)c(NCCc3cnc[nH]3)n2)c1)N1CCCC1"
assigned_class = "Criterion not met"

[[record]]
mol_smiles = "COc1cc(C(=O)N2CCC(N3CCN(C)CC3)CC2)ccc1Nc1ncc2c(n1)N(C)c1ccccc1C(=O)N2C"
assigned_class = "Criterion not met"

[[record]]
mol_smiles = "CN(C)C/C=C/C(=O)Nc1ccc(C(=O)Nc2cccc(Nc3nccc(-c4cccnc4)n3)c2)cc1"
assigned_class = "Criterion met"

[[record]]
mol_smiles = "O=c1cc(N2CCOCC2)oc2c(-c3cccc4c3sc3ccccc34)cccc12"
assigned_class = "Criterion met"


###

SUBJECT_OF_TEST: PIK3CA (human) (UniProt P42336)
Sequence (P42336 whole entry, looked up): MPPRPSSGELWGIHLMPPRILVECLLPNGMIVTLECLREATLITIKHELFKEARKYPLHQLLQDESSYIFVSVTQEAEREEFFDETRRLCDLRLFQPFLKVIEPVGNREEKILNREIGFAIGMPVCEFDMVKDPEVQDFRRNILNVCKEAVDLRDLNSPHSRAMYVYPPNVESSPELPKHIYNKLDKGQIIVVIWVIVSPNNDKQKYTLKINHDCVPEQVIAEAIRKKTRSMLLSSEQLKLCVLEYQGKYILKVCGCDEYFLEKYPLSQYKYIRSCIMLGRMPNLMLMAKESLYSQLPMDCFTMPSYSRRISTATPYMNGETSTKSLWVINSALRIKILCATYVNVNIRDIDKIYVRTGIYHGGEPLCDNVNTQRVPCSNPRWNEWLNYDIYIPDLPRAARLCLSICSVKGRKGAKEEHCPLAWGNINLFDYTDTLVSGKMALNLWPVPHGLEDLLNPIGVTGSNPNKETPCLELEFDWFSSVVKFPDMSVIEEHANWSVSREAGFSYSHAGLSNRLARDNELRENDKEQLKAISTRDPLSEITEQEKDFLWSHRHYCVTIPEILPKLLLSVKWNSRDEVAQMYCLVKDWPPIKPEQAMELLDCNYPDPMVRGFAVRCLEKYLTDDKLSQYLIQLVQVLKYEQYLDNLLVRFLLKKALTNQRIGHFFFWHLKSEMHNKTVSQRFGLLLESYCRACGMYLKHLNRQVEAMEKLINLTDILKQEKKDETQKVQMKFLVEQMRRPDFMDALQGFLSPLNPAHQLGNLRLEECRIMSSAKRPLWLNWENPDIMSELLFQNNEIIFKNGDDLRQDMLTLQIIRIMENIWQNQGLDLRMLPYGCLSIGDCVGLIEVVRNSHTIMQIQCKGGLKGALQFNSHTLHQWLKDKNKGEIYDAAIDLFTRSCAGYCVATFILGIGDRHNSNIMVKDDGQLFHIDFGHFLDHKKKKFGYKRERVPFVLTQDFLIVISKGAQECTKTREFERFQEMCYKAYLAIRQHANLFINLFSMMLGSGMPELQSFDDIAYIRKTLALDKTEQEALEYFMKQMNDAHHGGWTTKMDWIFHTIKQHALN
ASSAY_PROCEDURE: KINOMEscan competition binding
CONDITIONS_USED: compound 10.0 µM
OBSERVATION_TYPE: kinase still bound, per cent of control (%)

[[record]]
mol_smiles = "NC(=O)Nc1cc(-c2cccc(F)c2)sc1C(=O)N[C@@H]1CCCNC1"
subject_of_test = "PIK3CA (human) (UniProt P42336)"
observed = 100

[[record]]
mol_smiles = "O=C1NC(=O)/C(=C/c2ccc3nccc(-c4ccncc4)c3c2)S1"
subject_of_test = "PIK3CA (human) (UniProt P42336)"
observed = 0.05

[[record]]
mol_smiles = "CCN(CC)CCCCNc1ncc2cc(-c3cc(OC)cc(OC)c3)c(NC(=O)NC(C)(C)C)nc2n1"
subject_of_test = "PIK3CA (human) (UniProt P42336)"
observed = 20

[[record]]
mol_smiles = "C=CC(=O)Nc1ccc(CN(C(=O)Nc2c(Cl)c(OC)cc(OC)c2Cl)c2cc(Nc3ccc(N4CCN(C)CC4)cc3)ncn2)cc1"
subject_of_test = "PIK3CA (human) (UniProt P42336)"
observed = 100

[[record]]
mol_smiles = "CS(=O)(=O)N1CCN(Cc2cc3nc(-c4cccc5[nH]ncc45)nc(N4CCOCC4)c3s2)CC1"
subject_of_test = "PIK3CA (human) (UniProt P42336)"
observed = 0.15

[[record]]
mol_smiles = "COc1cc(N2CCN(C)CC2)ccc1Nc1ncc2c(n1)N(C)c1ccccc1C(=O)N2C"
subject_of_test = "PIK3CA (human) (UniProt P42336)"
observed = 100

[[record]]
mol_smiles = "CN(C)C/C=C/C(=O)Nc1ccc(C(=O)Nc2cccc(Nc3nccc(-c4cccnc4)n3)c2)cc1"
subject_of_test = "PIK3CA (human) (UniProt P42336)"
observed = 100

[[record]]
mol_smiles = "COc1ccc(N(C(=O)Oc2c(C)cccc2C)c2ccnc(Nc3ccc(N4CCN(C)CC4)cc3)n2)c(OC)c1"
subject_of_test = "PIK3CA (human) (UniProt P42336)"
observed = 100

[[record]]
mol_smiles = "COc1cc2ncnc(-n3nc(-c4ccccn4)nc3N)c2cc1OC"
subject_of_test = "PIK3CA (human) (UniProt P42336)"
observed = 38

[[record]]
mol_smiles = "COc1cc(C(=O)N2CCC(N3CCN(C)CC3)CC2)ccc1Nc1ncc2c(n1)N(C)c1ccccc1C(=O)N2C"
subject_of_test = "PIK3CA (human) (UniProt P42336)"
observed = 74

[[record]]
mol_smiles = "C[C@@H](Oc1cc(-c2cnn(C3CCNCC3)c2)cnc1N)c1c(Cl)ccc(F)c1Cl"
subject_of_test = "PIK3CA (human) (UniProt P42336)"
observed = 100

[[record]]
mol_smiles = "O=c1cc(N2CCOCC2)oc2c(-c3cccc4c3sc3ccccc34)cccc12"
subject_of_test = "PIK3CA (human) (UniProt P42336)"
observed = 22

[[record]]
mol_smiles = "C=CC(=O)Nc1cc(-n2c(=O)ccc3cnc4ccc(-c5cn[nH]c5)cc4c32)ccc1C"
subject_of_test = "PIK3CA (human) (UniProt P42336)"
observed = 24

[[record]]
mol_smiles = "Cc1n[nH]c2ccc(-c3cncc(OC[C@@H](N)Cc4c[nH]c5ccccc45)c3)cc12"
subject_of_test = "PIK3CA (human) (UniProt P42336)"
observed = 100

[[record]]
mol_smiles = "O=C(Nc1cccc(Nc2ncc(Br)c(NCCc3cnc[nH]3)n2)c1)N1CCCC1"
subject_of_test = "PIK3CA (human) (UniProt P42336)"
observed = 100

[[record]]
mol_smiles = "CCN1CCN(C(=O)Cc2ccc(Nc3ncc(F)c(Nc4ccc(C(=O)Nc5ccccc5Cl)cc4)n3)cc2)CC1"
subject_of_test = "PIK3CA (human) (UniProt P42336)"
observed = 83

[[record]]
mol_smiles = "CNC(=O)c1ccc(Nc2cc(Nc3ccccc3S(=O)(=O)C(C)C)c3cc[nH]c3n2)nc1"
subject_of_test = "PIK3CA (human) (UniProt P42336)"
observed = 100

[[record]]
mol_smiles = "COCC(=O)NC/C=C/c1ccc2ncnc(Nc3ccc(Oc4ccc(C)nc4)c(C)c3)c2c1"
subject_of_test = "PIK3CA (human) (UniProt P42336)"
observed = 100

[[record]]
mol_smiles = "CCN(CC)CCCCNc1ncc2c(n1)N(C)C(=O)N(c1c(Cl)c(OC)cc(OC)c1Cl)C2"
subject_of_test = "PIK3CA (human) (UniProt P42336)"
observed = 100


###

SUBJECT_OF_TEST: SRPK1 (human) (UniProt Q96SB4)
Sequence (Q96SB4 whole entry, looked up): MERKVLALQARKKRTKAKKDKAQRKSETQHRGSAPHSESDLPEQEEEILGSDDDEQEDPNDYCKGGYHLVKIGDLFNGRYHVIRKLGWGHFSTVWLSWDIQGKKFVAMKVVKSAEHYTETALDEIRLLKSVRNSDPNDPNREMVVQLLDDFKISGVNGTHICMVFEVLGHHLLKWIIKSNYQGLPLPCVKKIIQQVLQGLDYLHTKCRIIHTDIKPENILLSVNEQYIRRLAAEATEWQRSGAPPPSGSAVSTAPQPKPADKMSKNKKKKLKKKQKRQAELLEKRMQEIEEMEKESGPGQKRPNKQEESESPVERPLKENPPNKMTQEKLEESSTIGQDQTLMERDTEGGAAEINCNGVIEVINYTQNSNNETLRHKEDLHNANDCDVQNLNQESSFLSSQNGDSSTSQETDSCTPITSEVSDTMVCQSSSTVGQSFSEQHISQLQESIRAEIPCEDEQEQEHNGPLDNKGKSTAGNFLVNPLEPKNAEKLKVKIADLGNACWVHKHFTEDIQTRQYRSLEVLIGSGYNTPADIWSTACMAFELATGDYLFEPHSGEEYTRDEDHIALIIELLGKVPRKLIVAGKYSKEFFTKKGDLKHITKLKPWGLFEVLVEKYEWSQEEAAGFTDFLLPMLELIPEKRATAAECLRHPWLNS
ASSAY_PROCEDURE: KINOMEscan competition binding
CONDITIONS_USED: compound 10.0 µM
Below: a set of entries, each annotated with reported kinase still bound, per cent of control.
OBSERVATION_TYPE: kinase still bound, per cent of control (%)

[[record]]
mol_smiles = "CCN1CCN(C(=O)Cc2ccc(Nc3ncc(F)c(Nc4ccc(C(=O)Nc5ccccc5Cl)cc4)n3)cc2)CC1"
observation_type = "kinase still bound, per cent of control"
unit_name = "%"
observed = 1.9

[[record]]
mol_smiles = "O=C1NC(=O)/C(=C/c2ccc3nccc(-c4ccncc4)c3c2)S1"
observation_type = "kinase still bound, per cent of control"
unit_name = "%"
observed = 100

[[record]]
mol_smiles = "CCN(CC)CCCCNc1ncc2c(n1)N(C)C(=O)N(c1c(Cl)c(OC)cc(OC)c1Cl)C2"
observation_type = "kinase still bound, per cent of control"
unit_name = "%"
observed = 100

[[record]]
mol_smiles = "CNC(=O)c1ccc(Nc2cc(Nc3ccccc3S(=O)(=O)C(C)C)c3cc[nH]c3n2)nc1"
observation_type = "kinase still bound, per cent of control"
unit_name = "%"
observed = 2

[[record]]
mol_smiles = "O=c1cc(N2CCOCC2)oc2c(-c3cccc4c3sc3ccccc34)cccc12"
observation_type = "kinase still bound, per cent of control"
unit_name = "%"
observed = 100

[[record]]
mol_smiles = "O=C(Nc1cccc(Nc2ncc(Br)c(NCCc3cnc[nH]3)n2)c1)N1CCCC1"
observation_type = "kinase still bound, per cent of control"
unit_name = "%"
observed = 4.2

[[record]]
mol_smiles = "COc1cc(N2CCN(C)CC2)ccc1Nc1ncc2c(n1)N(C)c1ccccc1C(=O)N2C"
observation_type = "kinase still bound, per cent of control"
unit_name = "%"
observed = 100

[[record]]
mol_smiles = "C=CC(=O)Nc1ccc(CN(C(=O)Nc2c(Cl)c(OC)cc(OC)c2Cl)c2cc(Nc3ccc(N4CCN(C)CC4)cc3)ncn2)cc1"
observation_type = "kinase still bound, per cent of control"
unit_name = "%"
observed = 100

[[record]]
mol_smiles = "C[C@@H](Oc1cc(-c2cnn(C3CCNCC3)c2)cnc1N)c1c(Cl)ccc(F)c1Cl"
observation_type = "kinase still bound, per cent of control"
unit_name = "%"
observed = 26


###

SUBJECT_OF_TEST: UniProtKB P61075
Sequence (P61075 whole entry, looked up): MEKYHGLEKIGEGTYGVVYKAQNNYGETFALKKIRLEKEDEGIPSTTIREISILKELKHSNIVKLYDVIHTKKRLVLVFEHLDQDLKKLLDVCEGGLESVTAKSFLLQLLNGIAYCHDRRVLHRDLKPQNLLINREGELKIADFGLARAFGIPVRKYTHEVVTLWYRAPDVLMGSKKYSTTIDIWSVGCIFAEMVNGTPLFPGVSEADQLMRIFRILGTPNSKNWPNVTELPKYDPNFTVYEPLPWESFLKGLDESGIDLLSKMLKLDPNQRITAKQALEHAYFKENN
ASSAY_PROCEDURE: KINOMEscan competition binding
CONDITIONS_USED: compound 10.0 µM
OBSERVATION_TYPE: kinase still bound, per cent of control (%)

[[record]]
mol_smiles = "N#CCNC(=O)c1ccc(-c2ccnc(Nc3ccc(N4CCOCC4)cc3)n2)cc1"
observation_type = "kinase still bound, per cent of control"
observed = 100

[[record]]
mol_smiles = "CNC(=O)c1cc(Oc2ccc(NC(=O)Nc3ccc(Cl)c(C(F)(F)F)c3)cc2)ccn1"
observation_type = "kinase still bound, per cent of control"
observed = 94

[[record]]
mol_smiles = "COCC(=O)NC/C=C/c1ccc2ncnc(Nc3ccc(Oc4ccc(C)nc4)c(C)c3)c2c1"
observation_type = "kinase still bound, per cent of control"
observed = 100

[[record]]
mol_smiles = "COc1cc(C(=O)N2CCC(N3CCN(C)CC3)CC2)ccc1Nc1ncc2c(n1)N(C)c1ccccc1C(=O)N2C"
observation_type = "kinase still bound, per cent of control"
observed = 100

[[record]]
mol_smiles = "C[C@@H](Oc1cc(-c2cnn(C3CCNCC3)c2)cnc1N)c1c(Cl)ccc(F)c1Cl"
observation_type = "kinase still bound, per cent of control"
observed = 95

[[record]]
mol_smiles = "O=C1NC(=O)/C(=C/c2ccc3nccc(-c4ccncc4)c3c2)S1"
observation_type = "kinase still bound, per cent of control"
observed = 93

[[record]]
mol_smiles = "CCN1CCN(C(=O)Cc2ccc(Nc3ncc(F)c(Nc4ccc(C(=O)Nc5ccccc5Cl)cc4)n3)cc2)CC1"
observation_type = "kinase still bound, per cent of control"
observed = 100

[[record]]
mol_smiles = "COc1ccc(N(C(=O)Oc2c(C)cccc2C)c2ccnc(Nc3ccc(N4CCN(C)CC4)cc3)n2)c(OC)c1"
observation_type = "kinase still bound, per cent of control"
observed = 100

[[record]]
mol_smiles = "O=C(Nc1cccc(Nc2ncc(Br)c(NCCc3cnc[nH]3)n2)c1)N1CCCC1"
observation_type = "kinase still bound, per cent of control"
observed = 100

